- Tested on: NCI-H522 lung
- test-description: NCI-60 one-dose screen, 48 h
- condition-notes: 10 µM unless noted
About 83,000 compounds went through this panel and 20% of them were active in at least one assay; those are over-represented in the sample as a whole. Calls of active or inactive are those of the source. Rule for the calls: active = growth percent below 10; inactive = the rest.
Hello, when you answer, please use one of the following outcomes: TRUE (active), FALSE (inactive)

**Q:** Which outcome did this test record for the compound "CCCCn1c(=O)c(/C=C/C(=O)/C=C/c2ccc(O)c(OC)c2)cc2ccc(Cl)cc21" ?
**A:** TRUE

**Q:** O=C(Nc1ccc(N=Cc2ccccc2O)cc1)NC1C=c2ccccc2=CC1 (stereo not given) , same question.
**A:** FALSE

**Q:** COc1ccc2c(c1)Oc1nc(N)c(C#N)c(N)c1C2Sc1ccc(O)cc1 (stereo not given) , same question.
**A:** TRUE

**Q:** COc1ccc(-c2nc(C#N)c(NCC(c3ccc(Cl)cc3)N3CCCCC3)o2)cc1 (stereo not given) , same question.
**A:** FALSE

**Q:** "COc1ccc(Cc2nc(C#N)c(N3CCN(c4ccc(F)cc4)CC3)o2)cc1" , same question.
**A:** FALSE

**Q:** "CC[C@]12C=CCN3CC[C@@]4(c5cc(NC(=O)CCC(=O)O[C@H]6CC[C@H]7[C@@H]8CC[C@H]9CC(=O)CC[C@]9(C)[C@H]8CC[C@]67C)c(OC)cc5N(C)[C@H]4[C@@](O)(C(=O)OC)[C@@H]1OC(C)=O)[C@@H]32" , same question.
**A:** FALSE

**Q:** "Cc1c(Cl)cccc1NC(=O)c1sc2nc3c(cc2c1N)COCC3" , same question.
**A:** FALSE

**Q:** "O=C1c2ccccc2C(=O)c2c1oc1c2c(=O)[nH]c2ccc(Cl)cc21" , same question.
**A:** TRUE

**Q:** "COc1ccc(OCC(=O)OC(C)C)cc1" , same question.
**A:** FALSE

**Q:** "C=C(C)[C@@H]1CC[C@]2(C(=O)n3ccnc3)CC[C@]3(C)[C@H](CC[C@@H]4[C@@]5(C)CCCNC(C)(C)[C@@H]5CC[C@]43C)[C@@H]12" , same question.
**A:** FALSE

====

- System: SF-295 CNS
- test-description: NCI-60 one-dose screen, 48 h (100 = growth as untreated, 0 = no growth, -100 = all killed)
- condition-notes: 10 µM unless noted
Compounds without any hit were thinned out: in the full panel of roughly 83,000, 20% have a hit.
attribute-measured: growth (%)
# unit: % | format: bare number

**Q:** Param item = "N#Cc1ccc(Oc2ccc3ccc(=O)oc3c2)cc1" ; retrieve measured growth.
**A:** 112

**Q:** "COCCOCCOCc1n(Cc2ccc3ccccc3c2)c2ccccc2[n+]1Cc1ccc2ccccc2c1" , same question.
**A:** 13.1

**Q:** "Cc1cc(NC(=O)CNc2nc(Oc3ccc(F)cc3)nc(-c3ccc(F)cc3)n2)ccc1Cl" , same question.
**A:** 96.9

**Q:** COc1cc(C2=NN(C=O)C(c3cccc(Nc4ccnc5cc(C(F)(F)F)ccc45)c3)C2)cc(OC)c1OC (centres undefined) , same question.
**A:** 65.2

**Q:** "NC(=O)c1ccc2nc3c(n2c1)C(=O)C(=O)c1ccccc1-3" , same question.
**A:** -98.7

**Q:** "COc1ccc(-c2nnc(N3CCN(C(=O)CN4CCN(c5ccccc5)CC4)CC3)nc2-c2ccc(OC)cc2)cc1" , same question.
**A:** -23

**Q:** "C=C(C)[C@@H]1CC[C@]2(C(=O)OCCOCCOCC[P+](c3ccccc3)(c3ccccc3)c3ccccc3)CC[C@]3(C)[C@H](CC[C@@H]4[C@@]5(C)CC[C@H](OC(C)=O)C(C)(C)[C@@H]5CC[C@]43C)[C@@H]12" , same question.
**A:** -92

**Q:** "CC(=O)OC[C@]12CC[C@@H](c3cn(Cc4ccc(Cn5cc([C@@H]6CC[C@]7(COC(C)=O)CC[C@]8(C)[C@H](CC[C@@H]9[C@@]%10(C)CC[C@H](OC(C)=O)C(C)(C)[C@@H]%10CC[C@]98C)[C@@H]67)nn5)cc4)nn3)[C@@H]1[C@H]1CC[C@@H]3[C@@]4(C)CC[C@H](OC(C)=O)C(C)(C)[C@@H]4CC[C@@]3(C)[C@]1(C)CC2" , same question.
**A:** 98.8

**Q:** "COc1ccc(-c2[nH]c3ccc(OC)cc3c2C=C(C#N)C#N)cc1" , same question.
**A:** -47.1

====

- Tested on: RXF 393 renal
- test-description: NCI-60 one-dose screen, 48 h
- condition-notes: 10 µM unless noted
This is part of a sample that, as a whole, favours compounds with a hit. Of some 83,000 tested, about 20% had one in any assay. Calls of active or inactive are those of the source. How the source made its calls: active means growth percent below 10; inactive means the rest.
Hello, when you answer, please use one of the following outcomes: class 1 for active, class 0 for inactive

**Q:** Which outcome did this test record for the compound Cc1nc2sc(C(=O)Nc3cccc4ccccc34)c(N)c2cc1C(C)O (configuration not stated) ?
**A:** class 0

**Q:** "Cc1ccn2c3c(c(C(=O)O)c2c1)C(=O)c1ccccc1C3=O" , same question.
**A:** class 0

**Q:** "O=C(O)c1cn(C2CC2)c2cc(N3CCN(Cc4nnc(Nc5ccccc5)o4)CC3)c(F)cc2c1=O" , same question.
**A:** class 0

**Q:** "Cc1nccc2c3ccc(OCc4cn(-c5ccc(Br)cc5)nn4)cc3n(CC(C)C)c12" , same question.
**A:** class 0

**Q:** OCCNc1nc(NCCO)nc(Nc2ccc(C3=NN(c4cc(Cl)cc(Cl)c4)C(c4ccc(C(F)(F)F)cc4)C3)cc2)n1 (configuration not stated) , same question.
**A:** class 1

**Q:** "Cc1cccc(NC(=O)c2sc3nc4c(cc3c2N)CN(Cc2ccccc2)CC4)c1C" , same question.
**A:** class 0

**Q:** "CCCCc1ccc(N=Nc2ccc(OCC[N+](C)(C)C)cc2)cc1" , same question.
**A:** class 0

**Q:** "CCOC(=O)CC[C@H](NC(=O)c1ccc(NC)c2ccccc12)C(=O)OCC" , same question.
**A:** class 0

**Q:** "O=c1nc(-c2ccccc2)c2cc(-c3ccc(N4CCCC4)nc3)ccc2[nH]1" , same question.
**A:** class 0

**Q:** "O=C1C(=O)c2c(nc3ccc(C(F)(F)F)cn23)-c2ccccc21" , same question.
**A:** class 1

**Q:** "CN1C(=O)c2cc(Cl)nc3c(NC(=O)c4cccc(Cl)c4)c(Cl)c(NC(=O)c4cccc(Cl)c4)c1c23" , same question.
**A:** class 1

**Q:** "CCOCCc1c(O)nc(SC)[nH]c1=O" , same question.
**A:** class 0

**Q:** "CC[C@]12C=CCN3CC[C@@]4(c5ccc(OC)cc5N(C)[C@H]4[C@@](O)(C(=O)OC)[C@@H]1OC(=O)CCC(=O)O[C@H]1CC[C@H]4[C@@H]5CC[C@H]6CC(=O)CC[C@]6(C)[C@H]5CC[C@]14C)[C@@H]32" , same question.
**A:** class 0

**Q:** "CC(C)(C)c1nn(-c2ccccc2)c2c1COCN2Cc1ccc(Cl)cc1" , same question.
**A:** class 0

**Q:** "Cc1cccc(C)c1NCc1nnc(-c2ccc(O)cc2)o1" , same question.
**A:** class 0

**Q:** "COc1cc(C)ccc1Oc1nc(Nc2ccc(N3CCOCC3)cc2)ncc1N=Cc1cc(C(F)(F)F)cc(C(F)(F)F)c1" , same question.
**A:** class 0

**Q:** "CC(C)C1=C[C@@]23CC[C@H]4[C@](C)(COCCC#N)CCC[C@]4(C)[C@H]2C[C@@H]1[C@@H]1[C@H]3[C@@H](OCCC#N)CC[C@@H]1OCCC#N" , same question.
**A:** class 0

**Q:** "C#CCOC(=O)[C@]1(C)CCC[C@]2(C)[C@H]3C[C@H]4C(C(C)C)=C[C@]3(CC[C@H]21)[C@@H]1C(=O)CCC(=O)[C@@H]14" , same question.
**A:** class 0

**Q:** "CSc1cccc(NC(=O)Nc2nc3c(C)cccc3s2)c1" , same question.
**A:** class 0

**Q:** "C#Cc1cccc(Nc2ncnc3ccc(NC(=O)c4ccccc4)cc23)c1" , same question.
**A:** class 0

**Q:** "COC(=O)c1nc(-c2ccccc2)oc1S(=O)(=O)n1nc(-c2ccccc2)cc1N" , same question.
**A:** class 0

**Q:** "C=C1C(=O)O[C@H]2[C@H]1CC/C(COC(=O)N1CCC[C@H]1C(=O)Nc1ccc(OC)c(C(N)=O)c1O)=C\CC[C@@]1(C)O[C@@H]21" , same question.
**A:** class 1

**Q:** "COc1ccc(C(=O)c2cc(OC)c(OC)c(OC)c2)cc1OC(=O)CCl" , same question.
**A:** class 0

**Q:** "CC(=O)c1cnc(-c2ccccc2)nc1CBr" , same question.
**A:** class 0

**Q:** CCCCCCC/C=C/[C@H]1O[C@]23C(=O)C[C@@]4(C[C@@H](OC5OC(CO)C(O)C(O)C5O)C[C@@H]4[C@H]2C=C1C)OC3=O (some centres not stated) , same question.
**A:** class 1

**Q:** "Cc1cnc(SCc2ccc(Cl)cc2Cl)nc1Nc1ccc(Cl)c(Cl)c1" , same question.
**A:** class 0

**Q:** "COc1ccc2[nH]c(=O)c(/C=C/C(=O)c3ccccc3OC)cc2c1" , same question.
**A:** class 1

**Q:** "CSc1nc(-c2ccc(F)cc2)c(C#N)c(N2CCOCC2)n1" , same question.
**A:** class 0

**Q:** "NC(=N\N=C\c1ccccc1O)/C(N)=N/N=C/c1ccccc1O" , same question.
**A:** class 0

**Q:** CCOC(=O)NC(Cc1ccccc1)c1ccccc1 (configuration not stated) , same question.
**A:** class 0

**Q:** "COc1cc2c(Nc3ccc(NC(=O)Nc4ccc(Cl)c(C(F)(F)F)c4)c(Cl)c3)ncnc2cc1OCCCN1CCN(C)CC1" , same question.
**A:** class 1

**Q:** "COc1ccc2nc3nc4ccc[nH]c4cc3c2c1" , same question.
**A:** class 0
